Below, each entry is listed alongside its reported pKd.
# tgt: DLG4_2, P78352
# Sequence (P78352 155-259): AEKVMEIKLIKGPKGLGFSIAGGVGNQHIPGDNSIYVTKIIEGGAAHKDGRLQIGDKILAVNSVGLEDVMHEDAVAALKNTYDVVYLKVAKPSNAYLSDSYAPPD
# assay: holdup assay
# Parameters: key: below the threshold = too weak to quantify, mostly under pKd 3.1 to 4
# experimental.setup: plain residues with an end cap or a label only (N-terminal biotin on a linker: ado-ado)
readout.type: pKd

> print(dat)
                          binder  readout.type  recorded.result
 1    FHSIKQSTAV [CRHR1, P34998]           pKd             4.93
 2   PLPPEEESWV [GAS2L2, Q8NHY3]           pKd             4.69
 3    KEKASTETEC [TRPM1, Q7Z4N2]           pKd              3.9
 4   EPAKETTTNV [SLC2A3, P11169]           pKd             4.21
 5    QKNKDREYYV [NRXN3, Q9HDB5]           pKd             3.67
 6    LPPPESESKV [KCNJ9, Q92806]           pKd             3.67
 7  ADEMICITTL [CACNA1D, Q01668]           pKd             4.02
 8      SRPHTNETSL [MCC, P23508]           pKd             3.83
 9   DYSNLRETDI [ADRA1D, P25100]           pKd             4.54
10   SKQFDKNAYV [CLDN10, P78369]           pKd             3.52
11   HLSTRQGTCV [ATRNL1, Q5VV63]           pKd             4.43
